Test: yeast display, Sf9 membrane polyspecificity reagent, FACS + sequencing; frameworks hold sequencing errors
readout_kind: polyreactivity (PSR sort gate)

chain_sequence: QVQHEESGGGLVQAGGSLRISCAASGTTFFTYAMGWYRPAPGKEREFVAAISWSDDSTYYADSVKGRFTISRDYAKNTVYLQMNSLKPEDTAVYYCAAEWGQRGGGGYYYWGQGTQVTVSS
polyreactivity (PSR sort gate): low polyreactivity
//
chain_sequence: QVQLVESGGGLVQAGGSLRLSCAASGSTIGVYAMGWYRQAPGKERELVAAITSGDSTNYADSVKGRFTISRDNAKNTVYLQMYSLKPEDTAVYYCNARQLYYWYYAYDYWGQGTQVTVST
polyreactivity (PSR sort gate): low polyreactivity
//
chain_sequence: QVQLVESGGGLVQAGGSLRLSCAASGSIFYANAMGWYRQAPGKERELVAAISWSGGRTYYADSVKGRFTISRDNAKNTVYLQMNSLKPEDTAVYYCNVLPLYLEYDYWGQGTQVTVSS
polyreactivity (PSR sort gate): high polyreactivity
//
chain_sequence: QVQLVESGGGLVQAGGSLRLSCAASGSIFSPNDMGWYRQAPGKERELVAAITTAGSTYYADSVKGRFTISRDTAKNTVYLQMNSLKPEDTAVYYCAATYISVTDYAYFPLWYGYWGEGTQVTVSS
polyreactivity (PSR sort gate): low polyreactivity
//
chain_sequence: QGQLVESGGGLVQAGGSLRLSCAASGYTFYANAMGWYRQAPGNEREFVASITWSGGSTYYADSVKGRFTLSRDNAKNTVYLQMNSLKPEDTAVSDCAAESWFKYDYWGQGTQVTVSS
polyreactivity (PSR sort gate): low polyreactivity

*Q* Check the records and state polyreactivity (PSR sort gate) for `QVQLVESCGGLVQPGGSLRLSCAASGSTFTRYGFGWYRQATGKEREMVAAITTSGSSTYYADSVKGRFTISRDNAKYTVYLQMNSLKPEETAVYYGAADWSSWGFDYWGQGTQVTVSS`
*A* low polyreactivity

*Q* Check the records and state polyreactivity (PSR sort gate) for `QVQLVESGGGLVQAGGSLRLSCAASGSTFPGNAMGWYRQAPGKERELVASIRRSGGSTYYADSVKGRFTISRDNAKNTVYLQMNSLKPEDTAVYYCAKRTFLVSGPRSYGWYGVYYWGQGTQVTVSS`
*A* high polyreactivity

*Q* Check the records and state polyreactivity (PSR sort gate) for `QVQLVESGGGLVQAGGSLRLSCAAYGFIFVRYAMGWYRQAPGKERELVAAISWRGGSTYYADSVKGRFTISRDNAKNTVYLQMNSLKPEDNAVYYCAGAVYQRARYYWGQGTQVNVSS`
*A* high polyreactivity

----------
Experiment: yeast display, Sf9 membrane polyspecificity reagent, FACS + sequencing; frameworks hold sequencing errors
readout_kind: polyreactivity (PSR sort gate)

chain_sequence: QVQLVESGGGLVQAGGSLRLSCAASGPIFRGYAMGWYRQAPGKERELVARITSGGRTYYADSVKGRFTISRDNAKNTVYLQMNSLKPEDTAVYYWATVGRGYDERHNYWGQGTQVTVSS
readout_kind: polyreactivity (PSR sort gate)
value_reported: high polyreactivity
--
chain_sequence: QVQLVESGGGLFQAGGSLRLSCAASGFTVRRYTMGWYRPATGKEREMVATISLSDGNTYYADSVKGRFTISRDNAKNTVYLQMNRLKAEDTAFYDCNAYSQSWNFYGDGDYWGQGTQVTVSS
readout_kind: polyreactivity (PSR sort gate)
value_reported: low polyreactivity
--
chain_sequence: QVQLLESGGGLVQAGGSLRLRCAASGTIFRISYMGSYRHAPGKEREFVAAITYCANTYYADSGKGRFTISRDNAKKTVYLHMNSLKPEDTAVYYCAVPPVKETFLDYWGQGTQVTVSS
readout_kind: polyreactivity (PSR sort gate)
value_reported: low polyreactivity
--
chain_sequence: QVQLVESGGGLVQAGGSLRLICAASGRTFRGYAMGWYRQAPGKERELVAAISVTGSSTNYADSVKGRFTISRDNAKNTVYLQMNSLKPEDTAVYYCNAKRVRYSLSYDYWGQGTQVTVSS
readout_kind: polyreactivity (PSR sort gate)
value_reported: high polyreactivity
--
chain_sequence: QVQLVESGGRLVQAGGSLRLSCAASGSIFGFNAMGWYRQAPGKERELVAAIIYGGSTNYADSVKGRFTISRDNEKNTVYLQMNSQKPEDTAVYYCAARLNYIRRGYWGQGTQVTVSS
readout_kind: polyreactivity (PSR sort gate)
value_reported: high polyreactivity

Note: attention shifts to another entry.
*Q* Check the records and state polyreactivity (PSR sort gate) for `QVQLVDSGGGLVQAGGSLRLSCAASGRTFLSMGWYRQAPGKERELVAAISRTNYADSVKGRFTISRDNAKNTVYLQMNSLKPEDTAVYYCAAVPKYGRYVRIGYPNDYWGQGTQVTVSS`
*A* low polyreactivity
